# Measured Target: Histamine H2 receptor (Homo sapiens, UniProt P25021); also: assay procedure not described here
# Sequence (P25021 whole entry): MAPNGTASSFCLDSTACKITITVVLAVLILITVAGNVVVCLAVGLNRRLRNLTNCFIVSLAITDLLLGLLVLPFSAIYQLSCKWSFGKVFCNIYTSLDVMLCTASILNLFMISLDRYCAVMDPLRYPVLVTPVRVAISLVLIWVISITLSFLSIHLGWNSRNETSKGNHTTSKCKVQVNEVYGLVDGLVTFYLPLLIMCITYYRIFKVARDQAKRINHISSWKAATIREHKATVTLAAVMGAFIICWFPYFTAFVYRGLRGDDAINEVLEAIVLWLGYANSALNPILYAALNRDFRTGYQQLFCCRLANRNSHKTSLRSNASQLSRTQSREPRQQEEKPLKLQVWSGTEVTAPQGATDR
# Assay type: functional, cell-based
Measured Attribute: AC50

Molecule	Observed
CCc1ccc(CCOc2ccc(CC3SC(=O)NC3=O)cc2)nc1 (stereo not drawn) [PIOGLITAZONE]	> 10 µM
CC(C)NCC1CCc2cc(CO)c([N+](=O)[O-])cc2N1 (stereo not drawn) [OXAMNIQUINE]	> 10 µM
O=C(Cn1ccnc1[N+](=O)[O-])NCc1ccccc1 [BENZNIDAZOLE]	> 30 µM
CCCOc1ccc(C(=O)OCCN(CC)CC)cc1N [PROPARACAINE]	> 30 µM
Cc1cc(-c2ccccc2)nnc1NCCN1CCOCC1 [MINAPRINE]	> 10 µM
NC(CO)C(=O)NNCc1ccc(O)c(O)c1O (stereo not drawn) [BENSERAZIDE]	> 10 µM
CC(C)C(=O)Nc1ccc([N+](=O)[O-])c(C(F)(F)F)c1 [FLUTAMIDE]	> 30 µM
O=C(O)c1cc(-c2ccc(F)cc2F)ccc1O [DIFLUNISAL]	> 30 µM
COC(=O)[C@@H]1CC2=CC(=O)CC[C@]2(C)[C@@]23O[C@@H]2C[C@@]2(C)[C@@H](CC[C@@]24CCC(=O)O4)[C@H]13 [EPLERENONE]	> 10 µM
CN1C(=O)CC(C)(c2ccccc2)C1=O (stereo not drawn) [METHSUXIMIDE]	> 30 µM
CN1C(=O)COc2c(C(=O)NC3CN4CCC3CC4)cc(Cl)cc21 (stereo not drawn) [AZASETRON]	> 30 µM
CCN1CCC[C@H]1CNC(=O)c1cc(S(N)(=O)=O)ccc1OC [LEVOSULPIRIDE]	> 10 µM
O=C1NCCN1CCN1CCC(c2cn(-c3ccc(F)cc3)c3ccc(Cl)cc23)CC1 [SERTINDOLE]	> 30 µM

---

Here, each record is paired with measured AC50 data.
# Measured Target: Cannabinoid receptor 1 (Homo sapiens); also: assay procedure not described here
# Sequence (P21554 whole entry): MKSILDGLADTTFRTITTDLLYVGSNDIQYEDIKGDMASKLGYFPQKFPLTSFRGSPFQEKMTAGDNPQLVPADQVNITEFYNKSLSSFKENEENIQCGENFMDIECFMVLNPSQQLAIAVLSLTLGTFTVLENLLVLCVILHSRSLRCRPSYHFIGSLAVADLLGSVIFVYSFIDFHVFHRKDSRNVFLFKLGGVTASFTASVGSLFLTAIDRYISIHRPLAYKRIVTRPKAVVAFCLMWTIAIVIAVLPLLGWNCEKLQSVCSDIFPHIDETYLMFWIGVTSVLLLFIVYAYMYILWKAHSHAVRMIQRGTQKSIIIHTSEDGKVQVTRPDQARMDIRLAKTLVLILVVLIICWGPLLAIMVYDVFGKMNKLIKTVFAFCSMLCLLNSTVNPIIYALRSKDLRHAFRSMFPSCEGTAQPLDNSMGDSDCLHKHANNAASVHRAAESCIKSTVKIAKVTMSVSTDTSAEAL
# Assay type: functional, cell-based

Compound	AC50
CCCCCCCCOc1ccccc1C(=O)Nc1ccc(C(=O)OCC[N+](C)(CC)CC)cc1 [OTILONIUM BROMIDE]	19 µM
NC(=O)C[S+]([O-])C(c1ccccc1)c1ccccc1 (centres undefined) [MODAFINIL]	> 30 µM
CC[C@H](C)C(=O)O[C@H]1C[C@H](O)C=C2C=C[C@H](C)[C@H](CC[C@@H](O)C[C@@H](O)CC(=O)O)[C@H]21 [PRAVASTATIN]	> 30 µM
CC(C)NCC1CCc2cc(CO)c([N+](=O)[O-])cc2N1 (centres undefined) [OXAMNIQUINE]	> 30 µM

---

# Measured Target: Neuropeptide Y receptor type 1 (Homo sapiens); also: assay procedure not described here
# Sequence (P25929 whole entry): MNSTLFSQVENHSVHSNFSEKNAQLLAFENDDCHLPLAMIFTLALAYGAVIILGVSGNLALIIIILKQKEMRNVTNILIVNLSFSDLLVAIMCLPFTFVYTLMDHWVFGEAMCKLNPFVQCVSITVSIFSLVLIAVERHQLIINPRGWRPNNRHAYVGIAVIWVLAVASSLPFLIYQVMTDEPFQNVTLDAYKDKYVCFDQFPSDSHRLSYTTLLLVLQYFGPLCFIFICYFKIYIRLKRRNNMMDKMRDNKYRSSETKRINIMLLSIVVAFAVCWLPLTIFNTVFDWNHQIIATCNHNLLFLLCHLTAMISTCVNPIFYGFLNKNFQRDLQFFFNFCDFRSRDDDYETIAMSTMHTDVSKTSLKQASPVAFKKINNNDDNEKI
Here, each record is paired with measured AC50 data.
Measured Attribute: AC50

Molecule	Observed
Oc1ncnc2[nH]ncc12 [ALLOPURINOL]	> 30 µM
Cc1ccc(-c2nc3ccc(C)cn3c2CC(=O)N(C)C)cc1 [ZOLPIDEM]	> 30 µM
CCCCN1CCCCC1C(=O)Nc1c(C)cccc1C (stereo unspecified) [BUPIVACAINE]	> 30 µM
C[C@H]1C[C@@H]2[C@H]([C@@H](O)C[C@@]3(C)[C@H]2CC[C@]3(O)C(=O)CO)[C@@]2(C)C=CC(=O)C=C12 [METHYLPREDNISOLONE]	> 10 µM
CC(C)NCC(O)COc1ccc(COCCOC(C)C)cc1 (stereo unspecified) [BISOPROLOL]	> 30 µM
CN(C)CCCN1c2ccccc2Sc2ccccc21 [PROMAZINE]	> 30 µM
Cc1c(O)c(=O)ccn1C [DEFERIPRONE]	> 30 µM
O=C(CCCCCCC(=O)Nc1ccccc1)NO [VORINOSTAT]	> 30 µM
CCOC(=O)[C@H](CCc1ccccc1)N[C@H]1CCCN2CCC[C@@H](C(=O)O)N2C1=O [CILAZAPRIL]	> 30 µM
CC(=O)O[C@@]12CO[C@@H]1C[C@H](O)[C@@]1(C)C(=O)[C@H](O)C3=C(C)[C@@H](OC(=O)[C@H](O)[C@@H](NC(=O)OC(C)(C)C)c4ccccc4)C[C@@](O)([C@@H](OC(=O)c4ccccc4)[C@H]21)C3(C)C [DOCETAXEL ANHYDROUS]	> 30 µM
CC(N)Cc1ccccc1 (stereo unspecified) [AMPHETAMINE]	> 30 µM
CN1CCCN=C1COC(=O)C(O)(c1ccccc1)C1CCCCC1 (stereo unspecified) [OXYPHENCYCLIMINE]	> 10 µM
CCCC(CCC)C(=O)O[C@H]1C[C@H]2CC[C@@H](C1)[N+]2(C)C [ANISOTROPINE]	> 30 µM
CCCS(=O)(=O)Nc1ccc(F)c(C(=O)c2c[nH]c3ncc(-c4ccc(Cl)cc4)cc23)c1F [VEMURAFENIB]	> 30 µM
CCCC(=O)N1CCCN(c2nc(N)c3cc(OC)c(OC)cc3n2)CC1 [BUNAZOSIN]	> 30 µM
C1=Cc2cccc(OCC3CNCCO3)c2C1 (stereo unspecified) [INDELOXAZINE]	> 30 µM
C1COC(NC(C2CC2)C2CC2)=N1 [RILMENIDINE]	> 30 µM
CCN(CC)CCNC(=O)c1cc(Cl)c(N)cc1OC [METOCLOPRAMIDE]	> 30 µM
O=C(Nc1ccccc1)OCC(CN1CCCCC1)OC(=O)Nc1ccccc1 (stereo unspecified) [DIPERODON]	> 30 µM
O=C1CN=C(c2ccccc2)c2cc(Cl)ccc2N1CC(F)(F)F [HALAZEPAM]	> 30 µM
CC(C(=O)O)c1ccc(C(=O)c2cccs2)cc1 (stereo unspecified) [SUPROFEN]	> 10 µM

---

# Measured Target: UniProt:P35367
# Sequence (P35367 whole entry): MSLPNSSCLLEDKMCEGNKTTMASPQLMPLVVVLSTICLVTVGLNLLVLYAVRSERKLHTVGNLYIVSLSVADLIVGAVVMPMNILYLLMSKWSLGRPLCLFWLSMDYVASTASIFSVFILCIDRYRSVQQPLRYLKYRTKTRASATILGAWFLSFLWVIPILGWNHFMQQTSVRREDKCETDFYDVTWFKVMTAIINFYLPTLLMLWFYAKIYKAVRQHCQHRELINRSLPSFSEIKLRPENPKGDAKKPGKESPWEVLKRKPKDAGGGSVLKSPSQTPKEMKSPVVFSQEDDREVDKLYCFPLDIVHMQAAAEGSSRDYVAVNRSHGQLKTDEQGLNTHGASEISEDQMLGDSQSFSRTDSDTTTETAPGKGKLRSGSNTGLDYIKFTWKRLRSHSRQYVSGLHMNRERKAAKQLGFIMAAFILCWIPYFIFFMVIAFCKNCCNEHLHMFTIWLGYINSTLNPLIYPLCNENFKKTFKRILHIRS
Here, each record is paired with measured AC50 data.
Measured Attribute: AC50

Compound	Measured Attribute	Observed
O=C(O)c1cccc(-c2noc(-c3ccccc3F)n2)c1	AC50	> 10 µM
C#CC1(OC(N)=O)CCCCC1 [ETHINAMATE]	AC50	> 10 µM
CC(C)NCC1CCc2cc(CO)c([N+](=O)[O-])cc2N1 (stereo not given)	AC50	> 10 µM
CC(C(=O)O)c1ccc(C(=O)c2cccs2)cc1 (stereo not given)	AC50	> 10 µM
CN1CC(=O)N2[C@H](c3ccc4c(c3)OCO4)c3[nH]c4ccccc4c3C[C@@H]2C1=O	AC50	> 10 µM
CN1CCC2=C(C1)C(c1ccccc1)c1ccccc12 (stereo not given)	AC50	8.1 µM
CC(C)C(=O)OCC(=O)[C@@]12O[C@H](C3CCCCC3)O[C@@H]1C[C@H]1[C@@H]3CCC4=CC(=O)C=C[C@]4(C)[C@H]3[C@@H](O)C[C@@]12C [CICLESONIDE]	AC50	> 10 µM
CN1C(=O)CC(=O)N(c2ccccc2)c2cc(Cl)ccc21	AC50	> 10 µM
COC(=O)[C@@H]1CC2=CC(=O)CC[C@]2(C)[C@@]23O[C@@H]2C[C@@]2(C)[C@@H](CC[C@@]24CCC(=O)O4)[C@H]13	AC50	> 30 µM
CCC(=O)OCC(=O)[C@@]1(OC(=O)CC)[C@H](C)C[C@H]2[C@H]3[C@H]([C@@H](O)C[C@@]21C)[C@@]1(C)C=CC(=O)C=C1C[C@H]3Cl [ALCLOMETASONE DIPROPIONATE]	AC50	> 30 µM
O=C(C[S+]([O-])C(c1ccccc1)c1ccccc1)NO (stereo not given)	AC50	> 30 µM
NS(=O)(=O)c1cc2c(cc1Cl)NC(CC1CCCC1)NS2(=O)=O (stereo not given) [CYCLOPENTHIAZIDE]	AC50	> 30 µM
CN(CCOc1ccc(NS(C)(=O)=O)cc1)CCc1ccc(NS(C)(=O)=O)cc1 [DOFETILIDE]	AC50	> 10 µM
COC(=O)C1=C(C)NC(C)=C(C(=O)OC(C)C)C1c1cccc2nonc12 (stereo not given)	AC50	> 30 µM
CC(C(O)c1ccc(O)cc1)N1CCC(Cc2ccccc2)CC1 (stereo not given)	AC50	1 µM

---

# Measured Target: UniProt:Q12809
# Sequence (Q12809 whole entry): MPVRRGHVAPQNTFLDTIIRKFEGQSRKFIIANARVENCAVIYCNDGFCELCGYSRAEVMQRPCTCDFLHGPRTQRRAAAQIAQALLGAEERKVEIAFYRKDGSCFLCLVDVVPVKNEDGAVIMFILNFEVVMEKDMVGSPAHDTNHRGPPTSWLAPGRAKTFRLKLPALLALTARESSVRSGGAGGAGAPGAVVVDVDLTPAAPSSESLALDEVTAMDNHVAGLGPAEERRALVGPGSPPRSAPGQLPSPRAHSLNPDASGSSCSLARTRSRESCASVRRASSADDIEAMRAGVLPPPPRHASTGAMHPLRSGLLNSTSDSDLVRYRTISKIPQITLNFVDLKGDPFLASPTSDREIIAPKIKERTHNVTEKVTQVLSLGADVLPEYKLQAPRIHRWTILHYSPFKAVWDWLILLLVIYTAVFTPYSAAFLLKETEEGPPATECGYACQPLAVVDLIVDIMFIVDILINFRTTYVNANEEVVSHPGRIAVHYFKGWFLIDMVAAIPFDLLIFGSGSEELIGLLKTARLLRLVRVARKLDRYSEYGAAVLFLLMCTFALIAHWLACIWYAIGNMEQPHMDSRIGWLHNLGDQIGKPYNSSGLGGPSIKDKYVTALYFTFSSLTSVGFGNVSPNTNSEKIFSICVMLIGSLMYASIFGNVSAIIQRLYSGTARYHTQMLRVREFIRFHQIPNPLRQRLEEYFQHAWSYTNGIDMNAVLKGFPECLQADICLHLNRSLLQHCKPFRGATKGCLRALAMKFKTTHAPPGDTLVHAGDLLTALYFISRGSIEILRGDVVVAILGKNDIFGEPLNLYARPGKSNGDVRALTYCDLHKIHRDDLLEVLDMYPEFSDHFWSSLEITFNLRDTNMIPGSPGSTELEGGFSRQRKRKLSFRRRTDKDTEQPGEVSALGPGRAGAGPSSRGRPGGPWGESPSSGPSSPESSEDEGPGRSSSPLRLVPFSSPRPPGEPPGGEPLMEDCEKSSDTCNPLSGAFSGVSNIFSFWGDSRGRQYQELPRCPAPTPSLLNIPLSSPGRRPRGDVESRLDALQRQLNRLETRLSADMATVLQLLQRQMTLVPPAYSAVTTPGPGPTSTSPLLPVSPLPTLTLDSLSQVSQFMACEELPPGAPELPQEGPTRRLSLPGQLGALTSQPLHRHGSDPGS
# Assay type: functional
# Assay Setup: read-out: AC50; also: assay procedure not described here
Measured Attribute: AC50

Compound	Observed
CO/N=C(\C(=O)N[C@@H]1C(=O)N2C(C(=O)[O-])=C(C[N+]3(C)CCCC3)CS[C@H]12)c1csc(N)n1	> 300 µM
O=C(O)CCCc1ccccc1	> 30 µM
CCCCC(C)(O)C/C=C/[C@H]1[C@H](O)CC(=O)[C@@H]1CCCCCCC(=O)OC (some centres undefined)	> 30 µM
CC(C)NCC1CCc2cc(CO)c([N+](=O)[O-])cc2N1 (centres undefined)	> 30 µM
CCCC1C(=O)N2C(N(C)C)=Nc3ccc(C)cc3N2C1=O (centres undefined)	> 30 µM
O=C1CN=C(c2ccccc2)c2cc(Cl)ccc2N1CC(F)(F)F	> 30 µM
CNC(=O)c1cc(Oc2ccc(NC(=O)Nc3ccc(Cl)c(C(F)(F)F)c3)cc2)ccn1	> 30 µM
CC(=O)NS(=O)(=O)c1ccc(N)cc1 [SULFACETAMIDE]	> 30 µM
CC1(C)O[C@@H]2C[C@H]3[C@@H]4C[C@H](F)C5=CC(=O)CC[C@]5(C)[C@H]4[C@@H](O)C[C@]3(C)[C@]2(C(=O)CO)O1 [FLURANDRENOLIDE]	> 30 µM
